# Assay Procedure: Lower clearance in monkey (i.v.) at 0.5 mpk
# Format: ADME, organism-based
# Applied Conditions: cercopithecidae, in vivo, iv, 0.5 mg/kg
Assay Endpoint: Clp (L/h/kg)
Numbers only, in L/h/kg.

## Input Give the value of Clp reported for the following: CC[C@]1(C(=O)O)CCc2ccc(OCCCOc3ccc(Oc4ccc(F)cc4)cc3Cl)cc2O1
## Output 0.516

###

# Test system: Rattus norvegicus
# Assay Procedure: Lower clearance in rat (i.v.) at 0.5 mpk
# Format: ADME, organism-based
# Applied Conditions: in vivo, iv, 0.5 mg/kg
Assay Endpoint: Clp (mL/min/kg)
Answers are plain numbers, in mL/min/kg.

## Input Give the value of Clp reported for the following: CC[C@]1(C(=O)O)CCc2ccc(OCCCOc3ccc(Oc4ccc(F)cc4)cc3Cl)cc2O1
## Output 3.4
